assay.comment: Pharmacokinetics in AAV8-CYP3A4*12 mice
test.parameters: C57BL/6J, mouse, serum, po, 16.5 mg/kg, t1/2z, telmisartan 12 mg/kg 0.5 h before aumolertinib 16.5 mg/kg oral (Tel+Aum)
measure.name: half-life (h)
// units = h; emit number, no label

GET /values?readout=half-life&item= C=CC(=O)Nc1cc(Nc2nccc(-c3cn(C4CC4)c4ccccc34)n2)c(OC)cc1N(C)CCN(C)C [Aumolertinib]
29.1

====

assay.comment: Pharmacokinetics in AAV8-CYP3A4*1 mice
test.parameters: C57BL/6J, mouse, in vivo, po, 16.5 mg/kg, Vz/F, aumolertinib 16.5 mg/kg oral alone (Aum)
measure.name: Vd/F
Your reply should be a number followed by the unit it is expressed in.

GET /values?readout=Vd/F&item= C=CC(=O)Nc1cc(Nc2nccc(-c3cn(C4CC4)c4ccccc34)n2)c(OC)cc1N(C)CCN(C)C
165 L/kg
